Assay: protein stability index of a GFP-peptide fusion (yeast GPS) (PSI 1-4); higher = more stable; sorted into four equal gates, so the index is relative within each strain
Conditions: ubr1∆
Entries and their measured protein stability index follow.
Format: numeric value only, no unit, no commentary.

Some sequences with known protein stability index results, for comparison:
EANFDLINIDTSIANAF [RPC40]: 3.07
NNKNKRVTGAGGQQRRM [RPC53]: 3.33
PNSNVELAGGNASLTIE [SMC1]: 3.04
VEELPTFHDYDMVKLDI [RRP42]: 3.13
GEGSTVNASVDVDQHGN [SWI3]: 3.35

Moving on to another sequence below.
Query string: Entry FMTKLLEVANDLQLLYV [IRR1] : reported protein stability index = ?
Result string: 1.24

----------
Assay: protein stability index of a GFP-peptide fusion (yeast GPS) (PSI 1-4); higher = more stable; sorted into four equal gates, so the index is relative within each strain
Details: san1∆
Reported protein stability index values for a set of sequences
The response must contain the number and no unit.

Previously resolved entries follow.
CYAPRPSAGPHKLRESL [RPS4A]: 2.87
QRYQDLSQQQKDAQKKD [YIL149C/MLP2]: 2.79
PSTTLFNFGGKSDTVTS [YOR098C/NUP1]: 2.4
FETFLVDVNNKFIALCE [SIN4]: 3.09
ILKTLERSICALGEFAD [YML031W/NDC1]: 3.05
LISIHSRENNSEYMVFG [YJL039C/NUP192]: 2.77

Here's the next entry for you.
Query string: Can you look up the measured protein stability index of RTKSQVIEEDYDDEQNT [IRR1] for me?
Result string: 2.38

----------
Assay: protein stability index of a GFP-peptide fusion (yeast GPS) (PSI 1-4); higher = more stable; sorted into four equal gates, so the index is relative within each strain
Settings: san1∆
measured-quantity: protein stability index
API doc: respond with a numeric literal and nothing else, no unit.

Illustrative cases are given below, each with its answer.
LAVCDELGNMTMLITGQ [SIN4]: 2.23
VPTSIQTKRWPTMYTRL [SIN4]: 2.5
DVTPISMFGSDQKTGRA [RPN4]: 3.07
LLPANLLSLNSVRSLQK [SRP68]: 2.49

Query string: What measured protein stability index goes with LEWNMANLLFKKEKLKQ [RPC82] ?
Result string: 1.38

Query string: Please give the result for LIEKVDDTAANNGDKDH [YIL149C/MLP2] too.
Result string: 2.99

Query string: And KEYQCSAVIIDEFKDIT [YIL149C/MLP2] ?
Result string: 2.35

Query string: Same read-out for QFSESTHNDIDSTAVAL [YJL039C/NUP192] ?
Result string: 2.71

Query string: Please answer likewise for KPSRTSRQVQKRPRSRT [RPS7A]
Result string: 2.68

Query string: Continue with SSGDFDDNNNNNNNNNN [GRR1]
Result string: 3.22

Query string: Follow-up entry: IFLQQFLQELLKKVQQQ [SWI1]
Result string: 2.56

----------
Assay: protein stability index of a GFP-peptide fusion (yeast GPS) (PSI 1-4); higher = more stable; sorted into four equal gates, so the index is relative within each strain
Settings: san1∆
measured-quantity: protein stability index

Example results:
MKWDFAKDIKGYGTQKI [PRE4]: 1.84
IVRPAKGVATTREKVLE [RRP46]: 2.21
GIFNLLNTLFNPVTLNE [NUT1]: 1.87
PALLRPGRLDRKIEFPS [RPT3]: 3.07

Query string: # get_value(readout='protein stability index', item= NLNDAGLALQLFKKLKE [RPN2] )
Result string: 2.51

Query string: Quick one: SRRFKNGFQTGSASKAS [RPL37A]
Result string: 3.26

Query string: What about TENDIKALQSIGQLIGE [RPT4] ?
Result string: 2.74

----------
Test: protein stability index of a GFP-peptide fusion (yeast GPS) (PSI 1-4); higher = more stable; sorted into four equal gates, so the index is relative within each strain
Details: doa10∆
Let's look at some sequences and their measured protein stability index.
Enter the number alone.

HDNHGNKLGNKRLTEDE [CDC53]: 2.51
LEQQKQPTGLLKGLNGF [YMR153W/NUP53]: 3.53

Alright, here's another sequence for you.
Query string: State the recorded protein stability index for this entry: EASKKSAVKPRPLKLER [FAS1]
Result string: 3.1

----------
Assay: protein stability index of a GFP-peptide fusion (yeast GPS) (PSI 1-4); higher = more stable; sorted into four equal gates, so the index is relative within each strain
Details: pdr5∆
measured-quantity: protein stability index
# print the numeric value only

SAASKKKKNKNKGKKKR [SRP21]: 3.04
KFKDMGIRAPKGALMYG [RPT5]: 3.46
KDAISFIKEIHKSIELI [YCS4]: 2.81

Query string: What does the record list as protein stability index for SSLNGTNAKIPQFDSTQ [SSN3] ?
Result string: 3

Query string: Same question, EEAAGTKMFEDRREKAE [SMC2] this time
Result string: 3.36

Query string: Repeat with NFNSVNDANITSNKEGF [SSN2]
Result string: 3.25

Query string: What about QRYQDLSQQQKDAQKKD [YIL149C/MLP2] ?
Result string: 3.08

Query string: Please do the same for NTQLHGPSATDPETTAT [RGR1] as well.
Result string: 2.89

Query string: Next sequence: NELMRWPIVQKTYEPVL [RPN5]
Result string: 2.39

Query string: Please give the result for RSEDPAGLGKTNELWAR [YGR119C/NUP57] too.
Result string: 2.24

Query string: Same again, this time with FAWSKPSTGSNLQQQQQ [YGR119C/NUP57]
Result string: 3.06

Query string: Please answer likewise for LELMDSKKTGQFNAQGV [POP1]
Result string: 3.6

Query string: Do the same for LPAPPVCIRPSVMMQDS [RPO31] please
Result string: 2.08

Query string: Also check EMNLHVPQSEETRAELS [RPO21]
Result string: 3.31

Query string: Lookup SGVKNDILQSLSGGGHD [CDC53]
Result string: 3.09

Query string: How about this sequence: GVDNLRRMGILKKILDQ [RPO31]
Result string: 2.7

Query string: What do we get for NMMDAISFVLGVRSNHL [SMC1] ?
Result string: 2.58

Query string: Now consider LEALMDILLCYQKLFSQ [SRB8] .
Result string: 3.16

Query string: Also LMRQALAIKDSKKRFAA [RPO21] ?
Result string: 2.12

Query string: // same read-out, input: VFESLEINNLIQLPASL [ARP9]
Result string: 1.88

Query string: Could you do the same for EQKLVDLLKFENISLAE [BRR2] , please?
Result string: 2.93

Query string: // query: AKAPSGLDQSRIPFSER [FAS1]
Result string: 2.19

Query string: TVNEPQMSDKHATVVPP [SRB7] ?
Result string: 2.83

Query string: Query MFQSQSQLQPQPQPQPQ [YDL088C/ASM4] next
Result string: 2.49

----------
Assay: protein stability index of a GFP-peptide fusion (yeast GPS) (PSI 1-4); higher = more stable; sorted into four equal gates, so the index is relative within each strain
Conditions: pdr5∆
Label Condition met when protein stability index is at or above 3; anything below gets Condition not met.

Answered examples (3):
MILKLVCQVTKFGLLLQ [ECM29]: Condition not met
PKKFGGKGARSRFQKSY [RPS16A]: Condition met
LLVKLSKRLPLRFPEHT [BRR2]: Condition not met

Query string: Record MKLKLMIVYYKDAISFI [YCS4] ; criterion: protein stability index no lower than 3. Met?
Result string: Condition not met

Query string: Entry to check: APPQTRKFQPPPGFKRK [SMB1]
Result string: Condition met

----------
Experiment: protein stability index of a GFP-peptide fusion (yeast GPS) (PSI 1-4); higher = more stable; sorted into four equal gates, so the index is relative within each strain
Conditions: doa10∆
measured-quantity: protein stability index
Hey, just send me the number, nothing else.

Here is how some sequences turned out for protein stability index.
ENGTHNDEVNEDEEDDN [YCG1]: 3.42
SNISDEKSRISERDSKD [YMR129W/POM152]: 3.06
LYQTYHVLVGDLIKFSA [FAS1]: 2.2

Query string: Endpoint output: protein stability index of LNSNIRAGVTIPSIPNP [SNF5] . Value?
Result string: 2.57

Query string: Next up: GAINVANCQRQLTEFWT [NNF1]
Result string: 3.2

Query string: Could you do the same for SSNPNSSLHSPTSDEPV [SRB4] , please?
Result string: 3.09

Query string: And then SENEDTKDLLSKSPSEW [CSE2] , what is it?
Result string: 3.21

----------
Assay: protein stability index of a GFP-peptide fusion (yeast GPS) (PSI 1-4); higher = more stable; sorted into four equal gates, so the index is relative within each strain
Conditions: san1∆
Reported protein stability index values are given for each entry in this list.
Field format: numeric only.

Query string: Quick one: protein stability index of MASNEVLVLRGTLEGHN [ASC1] ?
Result string: 3.24
